molecular target: Fascin (Homo sapiens); experiment: Binding affinity to fascin 1 (unknown origin) by SPR assay
readout_type: Kd

In: State the measured Kd (Fascin (Homo sapiens)) of CC(=O)N(C)c1ccc(Cl)cc1Cl
Out: 92 µM

---

biological target: UniProtKB Q16658
Lab note - cut at 600 nM for IC50: Y if strictly below, N if not.

Known results for molecules:
[
  {
    "molecule": "Cn1cc(NC(=O)c2cn(Cc3ccc(Cl)c(Cl)c3)c(=O)c3ccccc23)cn1",
    "cat": "N"
  },
  {
    "molecule": "Cn1cc(NC(=O)c2cn(Cc3ccc(Cl)cc3)c(=O)c3ccccc23)cn1",
    "cat": "N"
  },
  {
    "molecule": "O=c1c2cnn(C3CCS(=O)(=O)C3)c2ncn1Cc1ccc(Cl)c(Cl)c1 (stereo not given)",
    "cat": "N"
  },
  {
    "molecule": "Cn1cc(NC(=O)c2cn(Cc3ccccc3)c(=O)c3ccccc23)cn1",
    "cat": "N"
  },
  {
    "molecule": "Cn1cc(NC(=O)c2cn(Cc3cccc(Cl)c3)c(=O)c3ccccc23)cn1",
    "cat": "N"
  }
]

In: Regarding Cn1cc(NC(=O)c2cn(Cc3ccc(Cl)c(Cl)c3)c(=O)c3cnn(C4CCS(=O)(=O)C4)c23)cn1 (stereo not given) , kindly confirm whether its IC50 is beneath 600 nM.
Out: N

In: Regarding Cn1cc(NC(=O)c2cn(Cc3ccc(Cl)c(Cl)c3)c(=O)c3cnc(N4CCNCC4)cc23)cn1 , kindly confirm whether its IC50 is beneath 600 nM.
Out: N

In: Regarding Nc1cc(C(=O)Nc2cnn(C3CCNC3)c2)cn(Cc2ccc(Cl)c(Cl)c2)c1=O (stereo not given) , kindly confirm whether its IC50 is beneath 600 nM.
Out: N

In: Regarding O=C(Nc1ccncc1)c1cn(Cc2ccc(Cl)c(Cl)c2)c(=O)c2cnn(C3CCS(=O)(=O)C3)c12 (stereo not given) , kindly confirm whether its IC50 is beneath 600 nM.
Out: Y

In: Regarding O=C(Nc1ccncc1)c1cn(Cc2ccc(Cl)c(Cl)c2)c(=O)c2cnn(C3CCNCC3)c12 , kindly confirm whether its IC50 is beneath 600 nM.
Out: Y

---

The next entries give measured Kd for Fascin (Homo sapiens, UniProt Q16658).
API: value field is a number in nM; no unit string.

[
  {
    "compound": "Nc1cc(C(=O)Nc2cnn(C3CCNC3)c2)cn(Cc2ccc(Cl)c(Cl)c2)c1=O (centres undefined)",
    "system_under_test": "Fascin (Homo sapiens, UniProt Q16658)",
    "unit_abbreviation": "nM",
    "reported_result": 21000
  }
]

In: State the measured Kd (Fascin (Homo sapiens, UniProt Q16658)) of Cn1cc(NC(=O)c2cn(Cc3ccc(Cl)c(Cl)c3)c(=O)c3cnn(C4CCS(=O)(=O)C4)c23)cn1 (centres undefined)
Out: 600

In: State the measured Kd (Fascin (Homo sapiens, UniProt Q16658)) of Cn1cc(NC(=O)c2cn(Cc3cccc(Cl)c3)c(=O)c3ccccc23)cn1
Out: 7600

In: State the measured Kd (Fascin (Homo sapiens, UniProt Q16658)) of O=C(Nc1ccncc1)c1cn(Cc2ccc(Cl)c(Cl)c2)c(=O)c2cnn(C3CCNCC3)c12
Out: 90

In: State the measured Kd (Fascin (Homo sapiens, UniProt Q16658)) of Cn1cc(NC(=O)c2cn(Cc3ccccc3)c(=O)c3ccccc23)cn1
Out: 29300

In: State the measured Kd (Fascin (Homo sapiens, UniProt Q16658)) of Cn1cc(NC(=O)c2cn(Cc3ccc(Cl)c(Cl)c3)c(=O)c3cnc(N4CCNCC4)cc23)cn1
Out: 580

In: State the measured Kd (Fascin (Homo sapiens, UniProt Q16658)) of O=C(Nc1ccncc1)c1cn(Cc2ccc(Cl)c(Cl)c2)c(=O)c2cnn(C3CCS(=O)(=O)C3)c12 (centres undefined)
Out: 270

In: State the measured Kd (Fascin (Homo sapiens, UniProt Q16658)) of CN(c1cc2c(C(=O)Nc3cnn(C)c3)cn(Cc3ccc(Cl)c(Cl)c3)c(=O)c2cn1)S(C)(=O)=O
Out: 2000

In: State the measured Kd (Fascin (Homo sapiens, UniProt Q16658)) of Cn1cc(NC(=O)c2cn(Cc3ccc(Cl)cc3)c(=O)c3ccccc23)cn1
Out: 2700

In: State the measured Kd (Fascin (Homo sapiens, UniProt Q16658)) of Cn1cc(NC(=O)c2cn(Cc3ccc(Cl)c(Cl)c3)c(=O)c3ccccc23)cn1
Out: 1500
